System: Chordin-like protein 2 (CHRDL2)
assay summary: CHRDL2 small-molecule binders, primary screen, biochemical, small-molecule microarray, 635 nm fluorescence (AID 1126);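 note: printed compound slides probed with Chrdl2 protein at 4 µg/mL for 1 h at 4 C; score merges 667 nm emission intensity with signal to noise over three replicate slides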
run conditions: small-molecule microarray binding, fluorescence 635 nm; higher = more signal
quantity name: composite z-score
Reply with the value as a number alone.

[[record]]
molecule_smiles = "COC(=O)[C@H](C)NC(=O)[C@@H](C)CO"
value = 0.0899

[[record]]
molecule_smiles = "CO[C@H]1COC(=O)CC=C[C@H](C)[C@@H](NS(=O)(=O)c2ccc(C)cc2)COC(=O)CC=C[C@@H]1C"
value = 0.713

[[record]]
molecule_smiles = "COc1ccc(CCNC(=O)[C@@H]2c3ccccc3C(=O)N(c3ccc(C)cn3)[C@H]2c2ccc(CO)cc2)cc1"
value = -1.76


// molecule `CCOC(=O)CCN1C(=O)[C@H]2[C@H]3[C@H](O)[C@H](O)CC(=O)[C@H]3CC[C@H]2C1=O` , assay Chordin-like protein 2 (CHRDL2), composite z-score value: 0.454

// molecule `CCOC(=O)CCN1C(=O)[C@H]2[C@H]3[C@H](O)[C@H](O)CC(=NOC[C@@H](O)COCc4ccco4)[C@H]3CC[C@H]2C1=O` , assay Chordin-like protein 2 (CHRDL2), composite z-score value: -0.173

// molecule `CCCCC(=C=CC[C@H](O)c1ccccc1OCCO)C[C@H](O)COCc1ccccc1` , assay Chordin-like protein 2 (CHRDL2), composite z-score value: -0.632

// molecule `C=C(CCCC)C(=O)CC[C@@H](OC(C)=O)c1cccc(OCCO)c1` , assay Chordin-like protein 2 (CHRDL2), composite z-score value: 0.582

// molecule `COC(=O)[C@@H]1CC[C@H](C)[C@@H](c2ccc(C)cc2)N1C(=O)c1ccc(C=NOC[C@@H](O)COCc2ccco2)cc1` , assay Chordin-like protein 2 (CHRDL2), composite z-score value: -0.177

----------
assay summary: small-molecule microarray binders of probe aShh, primary screen, biochemical, biotinylated probe, 635/667 nm fluorescence (AID 1114);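 note: probe is biotin-labelled aShh protein from a stem cell growth factor screen; measures binding of labelled protein to compounds printed on the slide; score merges feature fluorescence at 667 nm with signal-to-noise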
run conditions: higher = more signal
quantity name: composite z-score
Reply with the value as a number alone.

Observe how each entry below is paired with its result.
[[record]]
compound = "CC(C)=NOCc1cccc(-c2cc(-c3ccccc3)no2)c1"
value = 0.0952

[[record]]
compound = "CCCC=C(CCC)[C@@H](NC(=O)c1ccc(-c2ccccc2)cc1)c1ccc(C(=O)OC)cc1"
value = 0.0195

[[record]]
compound = "COC(=O)CC=C[C@@H](C)[C@@H](C=NO[C@H](C)c1cn([C@@H]2COC[C@H]2O)nn1)OC"
value = -0.291

[[record]]
compound = "O=C1C[C@@H](O)[C@@H](O)[C@@H]2[C@@H]3C(=O)N(c4ccc(F)cc4F)C(=O)[C@@H]3CC[C@@H]12"
value = -0.221

[[record]]
compound = "CCOC(=O)C[C@H]1[C@H](OC(=O)c2cc3ccccc3oc2=O)[C@@H](NC(=O)c2ccc3ccccc3n2)c2cc(OCCCO)ccc2N1C(=O)c1ccccc1"
value = -0.138

[[record]]
compound = "COc1cccc([C@H]2Oc3ccc(OC)cc3C(=NOC(C)CN3CCCc4nc(C)c(C)cc43)[C@@H]2O)c1 (some centres undefined)"
value = 0.151

[[record]]
compound = "CO[C@H]1O[C@H](CO)[C@@H](OC(=O)Nc2ccc(C#N)cc2)[C@H](OC(=O)c2cc3ccccc3[nH]2)[C@H]1OC(=O)c1cc2ccccc2[nH]1"
value = -0.0769

[[record]]
compound = "CC(C)OC(=O)C=C1C[C@@H](c2ccc(C#N)cc2)O[C@@H](c2ccc(C#N)cc2)O1"
value = 0.0875

[[record]]
compound = "CCOC(=O)CCN1C(=O)[C@H]2[C@H]3[C@H](O)[C@H](O)CC(=NNC(=O)OCc4ccc(OC)cc4)[C@@H]3CC[C@H]2C1=O"
value = -0.323

[[record]]
compound = "COC(=O)C1=C(C)N(Cc2ccccc2)[C@]23O[C@](C(=O)OC)(C(=O)N2[C@@H]1c1ccccc1)[C@H]1CCOC(=O)[C@H]13"
value = -0.0769


composite z-score measured on `COCCOC(=O)N1C(=O)[C@@]2(c3cc(C#Cc4ccc(OC)cc4)ccc31)[C@H](C(=O)N1CCN(c3ncccn3)CC1)[C@H]1C(=O)O[C@H](c3ccccc3)[C@H](c3ccccc3)N1[C@@H]2c1ccc(OCCO)cc1` = -0.229

composite z-score measured on `COCCOC(=O)N1C(=O)[C@@]2(c3cc(C#CC4(O)CCCCCC4)ccc31)[C@H](C(=O)N1CCN(c3ncccn3)CC1)[C@H]1C(=O)O[C@H](c3ccccc3)[C@H](c3ccccc3)N1[C@@H]2c1ccc(OCCO)cc1` = 0.637

composite z-score measured on `CCOC(=O)NN=C1C[C@@H](O)[C@@H](O)[C@@H]2[C@@H]3C(=O)N(C4CCCCC4)C(=O)[C@@H]3CC[C@@H]12` = -0.341
